Entries and their pEC50
# MEASURED_ON: CD73 activity in MDA-MB-231-GFP cells (Homo sapiens)
# Construct: endogenous in cells; host or cells: MDA-MB-231-GFP cells
# EXPERIMENTAL_DETAILS: MDA-MB-231 Cell Based CD73 Activity Assay
# TEST_CONTEXT: 10000 cells per well, RPMI medium with 10% human plasma, overnight compound treatment, AMP 200 μM
// pEC50 here means minus log10 of the molar concentration (mol/L)

Completed entries (count: 5):
[[record]]
compound = "O=c1[nH]cc(-c2cc([C@@H]3C[C@H]3c3cccc(Cl)c3)c3nccn3n2)c(=O)[nH]1 (racemic) [Example 38]"
result_number = 8.14

[[record]]
compound = "O=c1[nH]cc(-c2cc([C@@H]3C[C@H]3c3ccc(F)c(F)c3F)c3nccn3n2)c(=O)[nH]1 (racemic) [Example 34]"
result_number = 7.95

[[record]]
compound = "O=c1[nH]cc(-c2cc([C@@H]3C[C@H]3c3ccccc3F)c3nccn3n2)c(=O)[nH]1 (racemic) [Example 28]"
result_number = 8.44

[[record]]
compound = "O=c1[nH]cc(-c2cc([C@@H]3C[C@H]3c3ccc(F)c(F)c3)c3nccn3n2)c(=O)[nH]1 (racemic) [Example 33]"
result_number = 8.69

[[record]]
compound = "O=c1[nH]cc(-c2cc([C@H]3C[C@@H]3c3cccc(F)c3)c3nccn3n2)c(=O)[nH]1 (racemic) [Example 29]"
result_number = 8.15


Let us move to another entry and its pEC50.
The value of pEC50 recorded for COC(=O)c1ccccc1[C@H]1C[C@@H]1c1cc(-c2c[nH]c(=O)[nH]c2=O)nn2ccnc12 [Example 113] when tested on CD73 activity in MDA-MB-231-GFP cells (Homo sapiens) reads 6.68

----------
# MEASURED_ON: CD73 activity in MDA-MB-231-GFP cells (Homo sapiens, UniProt P21589)
# Construct: endogenous in cells; host or cells: MDA-MB-231-GFP cells
# EXPERIMENTAL_DETAILS: MDA-MB-231 Cell Based CD73 Activity Assay (DMEM)
# TEST_CONTEXT: 3000 cells per well, DMEM medium with 10% human plasma, overnight compound treatment, AMP 200 uM
Entries and their EC50
Kindly provide the numeric value in nM only, without the unit symbol.

Completed entries (count: 2):
[[record]]
molecule = "O=C1N(CC(F)(F)F)c2cc([C@H]3C[C@@H]3c3cc(-c4c[nH]c(=O)[nH]c4=O)nn4c(Cl)cnc34)ccc2C12CC2 (single isomer, unassigned)"
unit_text = "nM"
result_number = 0.28

[[record]]
molecule = "CC1CN(C(=O)c2ccc([C@H]3C[C@@H]3c3cc(-c4c[nH]c(=O)[nH]c4=O)nn4ccnc34)cc2)C1 (racemic)"
unit_text = "nM"
result_number = 9.64


Lab note: measured EC50 of `O=c1[nH]cc(-c2cc([C@H]3C[C@@H]3c3ccc(C(F)(F)F)cc3)n3ncnc3n2)c(=O)[nH]1` was 12.6

----------
# MEASURED_ON: CD73 activity in MDA-MB-231-GFP cells (Homo sapiens)
# Construct: endogenous in cells; host or cells: MDA-MB-231-GFP cells
# EXPERIMENTAL_DETAILS: MDA-MB-231 Cell Based CD73 Activity Assay (DMEM)
# TEST_CONTEXT: 3000 cells per well, DMEM medium with 10% human plasma, overnight compound treatment, AMP 200 uM
# Procedure: MDA-MB-231 Cell Based CD73 Activity Assay (DMEM) MDA-MB-231-GFP cells were seeded in 384-well plates (Greiner 781946) at a density of 3000 cells per well in 50 μL of DMEM medium with 10% HP (human plasma). Cells were plated into assay plate with compounds pre-spotted, for an overnight compound treatment. 50 uL of 400 uM AMP (final concentration will be 200 uM) was added using Bio-tek dispenser. Plates were incubated for 100 mins. […] The samples were analyzed using Rapid fire.
pEC50: −log10 of the molar value.
Label rule, in plain words: pEC50 of 9 and up is t, under 9 is f.

[[record]]
compound = "O=C(c1ccc([C@H]2C[C@@H]2c2cc(-c3c[nH]c(=O)[nH]c3=O)nn3ccnc23)cc1)N1CC(F)(F)C1 (racemic)"
class = "f"

[[record]]
compound = "O=c1[nH]cc(-c2cc([C@H]3C[C@@H]3c3cc4c(cn3)cnn4CC(F)(F)F)c3ncc(F)n3n2)c(=O)[nH]1"
class = "t"

[[record]]
compound = "CC1CN(C(=O)c2cccc([C@H]3C[C@@H]3c3cc(-c4c[nH]c(=O)[nH]c4=O)nn4ccnc34)c2)C1 (racemic)"
class = "f"

[[record]]
compound = "O=c1[nH]cc(-c2cc([C@H]3C[C@@H]3c3cccc4ccncc34)c3nccn3n2)c(=O)[nH]1 (racemic)"
class = "f"

[[record]]
compound = "N#Cc1cccc([C@H]2C[C@@H]2c2cc(-c3c[nH]c(=O)[nH]c3=O)nn3ccnc23)c1"
class = "f"

[[record]]
compound = "O=c1[nH]cc(-c2cc([C@H]3C[C@@H]3c3cc(OCC(F)(F)F)c4ncccc4c3)c3nccn3n2)c(=O)[nH]1 (racemic)"
class = "f"

[[record]]
compound = "O=c1[nH]cc(-c2cc([C@H]3C[C@@H]3c3cncc(F)c3)c3nccn3n2)c(=O)[nH]1 (racemic)"
class = "f"

[[record]]
compound = "O=c1[nH]cc(-c2cc([C@H]3C[C@@H]3c3ccc(OC(F)(F)F)cc3)c3ncc(F)n3n2)c(=O)[nH]1 (racemic)"
class = "f"


Input line: Does pEC50 meet or surpass 9 for CNC(=O)c1ccc([C@H]2C[C@@H]2c2cc(-c3c[nH]c(=O)[nH]c3=O)nn3ccnc23)cc1 (racemic) ?
Output line: f

Input line: Does pEC50 meet or surpass 9 for O=c1[nH]cc(-c2cc([C@H]3C[C@@H]3c3ccc4cnn(CC5CC5)c4c3)c3nccn3n2)c(=O)[nH]1 (racemic) ?
Output line: t

Input line: Does pEC50 meet or surpass 9 for O=C(c1ccc([C@H]2C[C@@H]2c2cc(-c3c[nH]c(=O)[nH]c3=O)nn3ccnc23)cc1)N1CCC1 (racemic) ?
Output line: f

----------
Entries and their pEC50
# MEASURED_ON: CD73 activity in MDA-MB-231-GFP cells (Homo sapiens, UniProt P21589)
# Construct: endogenous in cells; host or cells: MDA-MB-231-GFP cells
# EXPERIMENTAL_DETAILS: MDA-MB-231 Cell Based CD73 Activity Assay (DMEM)
# TEST_CONTEXT: 3000 cells per well, DMEM medium with 10% human plasma, overnight compound treatment, AMP 200 uM
// pEC50 here means minus log10 of the molar concentration (mol/L)

Completed entries (count: 4):
[[record]]
molecule = "O=c1[nH]cc(-c2cc([C@H]3C[C@@H]3c3ccc4cnccc4c3)c3nccn3n2)c(=O)[nH]1 (racemic)"
measured_on = "CD73 activity in MDA-MB-231-GFP cells (Homo sapiens, UniProt P21589)"
result_number = 8.73

[[record]]
molecule = "O=c1[nH]cc(-c2cc([C@H]3C[C@@H]3c3ccc(OC(F)(F)F)cn3)c3ncc(F)n3n2)c(=O)[nH]1 (racemic)"
measured_on = "CD73 activity in MDA-MB-231-GFP cells (Homo sapiens, UniProt P21589)"
result_number = 7.86

[[record]]
molecule = "O=c1[nH]cc(-c2cc(N3C[C@H](O)C(F)(F)C3)c3nccn3n2)c(=O)[nH]1 (single isomer, unassigned)"
measured_on = "CD73 activity in MDA-MB-231-GFP cells (Homo sapiens, UniProt P21589)"
result_number = 7.79

[[record]]
molecule = "N#Cc1ccc(F)c([C@H]2C[C@@H]2c2cc(-c3c[nH]c(=O)[nH]c3=O)nn3ccnc23)c1 (racemic)"
measured_on = "CD73 activity in MDA-MB-231-GFP cells (Homo sapiens, UniProt P21589)"
result_number = 7.70


Let us move to another entry and its pEC50.
Lab note: measured pEC50 of `O=c1[nH]cc(-c2cc([C@H]3C[C@@H]3c3ccc(F)cc3F)n3ncnc3n2)c(=O)[nH]1` was 7.48

----------
# MEASURED_ON: CD73 (Homo sapiens)
# Construct: purchased R&D system
# Sequence (P21589 27-549): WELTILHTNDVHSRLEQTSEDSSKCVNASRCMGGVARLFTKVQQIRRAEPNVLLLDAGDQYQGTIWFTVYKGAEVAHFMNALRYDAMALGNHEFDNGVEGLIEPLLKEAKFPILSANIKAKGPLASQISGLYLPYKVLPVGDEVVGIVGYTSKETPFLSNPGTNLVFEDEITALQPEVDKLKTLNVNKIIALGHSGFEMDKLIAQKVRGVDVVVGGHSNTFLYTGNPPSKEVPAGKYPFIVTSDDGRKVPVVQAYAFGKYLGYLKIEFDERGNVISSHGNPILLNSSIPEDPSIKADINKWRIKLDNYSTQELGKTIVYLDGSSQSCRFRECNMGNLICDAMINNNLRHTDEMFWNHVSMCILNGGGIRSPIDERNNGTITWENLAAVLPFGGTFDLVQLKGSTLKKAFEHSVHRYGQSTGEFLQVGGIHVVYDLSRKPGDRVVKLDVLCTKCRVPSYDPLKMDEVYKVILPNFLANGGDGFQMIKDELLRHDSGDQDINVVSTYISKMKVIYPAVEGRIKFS
# EXPERIMENTAL_DETAILS: CD73 Biochemical IC50 Assay
# TEST_CONTEXT: final AMP 15 uM, final CD73 0.3 nM, 25 mM Tris pH 7.4, 5 mM MgCl2, no phosphate
METRIC_NAME: IC50 (µM)
Kindly provide the numeric value in µM only, without the unit symbol.

Completed entries (count: 2):
[[record]]
compound = "COc1ccccc1[C@@H]1C[C@H]1c1cc(-c2c[nH]c(=O)[nH]c2=O)nn2ccnc12 (racemic) [Example 101]"
result_number = 0.0159

[[record]]
compound = "O=c1[nH]cc(-c2cc(N3C[C@@H](F)[C@@H](F)C3)c3nccn3n2)c(=O)[nH]1 [Example 77]"
result_number = 0.0226


Let us move to another entry and its IC50.
Lab note: measured IC50 of O=c1[nH]cc(-c2cc([C@@H]3C[C@H]3c3cc(F)c(F)c(F)c3)c3nccn3n2)c(=O)[nH]1 (racemic) [Example 36] was 0.0242

Cited source: patent US12110294B2
